SUBJECT OF TEST: T1, human PD-L1, full-length, on CHO cells (human, UniProt Q9NZQ7 19-290)
T1 construct: also called huPD-L1; CD274
MEASUREMENT NOTES: flow cytometry, CHO/PD-L1 cells; MFI relative to WT CD80 ECD-Fc
# thresholds on Fold change to WT CD80 define classes: low band = under 20 fold, middle band = from 20 fold up to 50 fold, high band = 50 fold and over

# BINDER, LABEL CLASS
measured = [
    ("variant CD80 IgV-Fc N48K (Fc fusion, not shown: small tags and cut ends; a dimerising Fc or GST) VIHVTKEVKEVATLSCGHNVSVEELAQTRIYWQKEKKMVLTMMSGDMKIWPEYKNRTIFDITNNLSIVILALRPSDEGTYECVVLKYEKDAFKREHLAEVTLSVKAD", "low band"),
]

Moving on to another binder below.
[Q] # classify by Fold change to WT CD80 band: variant CD80 IgV-Fc M47V/N48K (Fc fusion, not shown: small tags and cut ends; a dimerising Fc or GST) VIHVTKEVKEVATLSCGHNVSVEELAQTRIYWQKEKKMVLTMMSGDVKIWPEYKNRTIFDITNNLSIVILALRPSDEGTYECVVLKYEKDAFKREHLAEVTLSVKAD
[A] middle band
